tested on: K562; assay: NCI tumour cell line growth inhibition, 48 h
Calls of active or inactive are those of the source. Rule as the data show it: active = GI50 up to about 1.1 µM and inactive = higher.
Attribute Measured: GI50

Answered examples (2):
Smiles Structure: COc1ccc([N+](=O)[O-])cc1[I+]c1cc([N+](=O)[O-])ccc1OC
Test System: K562
Attribute Measured: GI50
Value Reported: 35 µM (inactive)

Smiles Structure: CCOP(=O)(Nc1ccc2oc(=O)c3ccccc3c2c1)OCC
Test System: K562
Attribute Measured: GI50
Value Reported: 38.1 µM (inactive)

Note: attention shifts to another entry.
input: Please provide the recorded GI50 for `NS(=O)(=O)c1ccc(NC(=S)NC(=O)Nc2ccc(Cl)c(Cl)c2)cc1` , tested on K562.
output: 4.55 µM (inactive)

----------
tested on: SNB-75; assay: NCI tumour cell line growth inhibition, 48 h
Calls of active or inactive are those of the source. Rule as the data show it: active = GI50 up to about 1.1 µM and inactive = higher.
Attribute Measured: GI50

Answered examples (5):
Compound: CC1SCc2nc3ccccc3n21 (stereo not given)
GI50: 0.284 µM (active)
--
Compound: CC1(C)CC(=O)C2=C(C1)NC1=C(C(=O)CC(C)(C)C1)C2c1ccc([N+](=O)[O-])cc1
GI50: 16.7 µM (inactive)
--
Compound: COc1cc(/C=C2/C(=O)N(C(=O)OCc3ccccc3)C(Cc3cc(OC)c(OC)c(C)c3OC)C(=O)N2Cc2ccccc2)c(OC)c(C)c1OC (stereo not given)
GI50: > 100 µM (inactive)
--
Compound: CC1C(NNC(N)=O)Oc2cc3c(cc2C1c1ccccc1O)OCO3 (stereo not given)
GI50: 27.9 µM (inactive)
--
Compound: Cc1cc(C)nc(NS(=O)(=O)c2ccc(NC(=O)c3cccc4c(Nc5ccc(S(=O)(=O)N=C(N)N)cc5)c5ccccc5nc34)cc2)n1
GI50: 38 µM (inactive)

input: Data request, read-out GI50, for COc1ccc(C(Nc2ccccn2)c2cc(C(C)(C)C)cc(C(C)(C)C)c2O)cc1 (stereo not given)
output: 13.8 µM (inactive)

input: Let us now turn to `C#CCn1c2c(c3ccccc3c1=O)C(=O)c1ccccc1-2`
output: 13.4 µM (inactive)

input: Let us now turn to `COc1cc2c(c(OC)c1OC)-c1[nH]ncc1CC2`
output: > 100 µM (inactive)

input: Let us now turn to `Cc1ccc2c(c1)C(=O)c1ccc(C)nc1C2=O`
output: 42.4 µM (inactive)

input: Let us now turn to `Cc1cc2nc3c(C)c4ccccc4c(C)n3c2cc1C`
output: 4.97 µM (inactive)

input: Let us now turn to `CCN(CC)C(=O)c1c(Cl)cc(N(CC)CC)oc1=O`
output: > 100 µM (inactive)

input: Let us now turn to `COc1ccc(/C=C2\NC(=S)N(CN3CCOCC3)C2=O)cc1`
output: > 100 µM (inactive)

----------
Below are compounds with their GI50 as measured on HCT-15.
Number only, in µM; omit the unit.

Compound: CC(C)CC(=O)OC[n+]1cccc(-c2c(COC(=O)NC(C)C)c(COC(=O)NC(C)C)c3n2CCC3)c1
Value Reported: 66.8
//
Compound: Cc1cc(CN(Cc2ccccc2)Cc2nc3ccccc3[nH]2)c(O)c(CN(Cc2nc3ccccc3[nH]2)Cc2nc3ccccc3[nH]2)c1
Value Reported: 2.81

input: Please provide the recorded GI50 for CC[C@]1(c2ccc3c(c2)OCO3)C=[N+]([O-])O[C@H](OC2CCCC2(c2ccccc2)c2ccccc2)[C@@H]1OC(C)=O (stereo partly specified) , tested on HCT-15.
output: 2.26

input: Let us now turn to `C=C(C)[C@@H]1CCC2=C[C@H](OC2=O)[C@@]2(C)C[C@@H]2C2=CC(C)=C(O2)[C@H]1O`
output: 36.4

input: Let us now turn to O=C1CC2(CCC(O)(c3ccco3)C(C(=O)c3ccco3)C2)C(=O)c2ccccc2N1 (stereo unspecified)
output: 53.8

----------
system: OVCAR-4; assay: NCI tumour cell line growth inhibition, 48 h
Calls of active or inactive are those of the source. No stated cut-off is given here; in the data, active = GI50 up to about 1.1 µM and inactive = higher.
Attribute Measured: GI50

Molecule: COc1ccc2c(c1O)[C@@]13CCCC=C1[C@@H](C2)N(C)CC3
GI50: > 100 µM (inactive)

Molecule: CSc1c(C#N)c(N)n2c1C(=O)N(c1ccccc1)C2=S
GI50: 26.5 µM (inactive)

Molecule: CC(=O)C1C(=O)C(=O)N(c2ccc(Br)cc2)C1=O (centres undefined)
GI50: > 100 µM (inactive)

input: Data request, read-out GI50, for `O=C(Cn1c2ccc(Br)cc2c2nc3ccccc3nc21)NNC(=S)NC1CCCCC1`
output: 12.6 µM (inactive)

input: Let us now turn to `Nc1nc(Cl)cc(NCC2(O)CCCC2)n1`
output: > 100 µM (inactive)

input: Let us now turn to COC(=O)C1=C(c2cc(OC)c(OC)c(OC)c2)OC(c2ccc3c(c2)OCO3)C1 (centres undefined)
output: 40.5 µM (inactive)

input: Let us now turn to `N/C(=N\O)N/N=C\c1c2ccccc2c(Cl)c2ccccc12`
output: 3.78 µM (inactive)

input: Let us now turn to COC(=O)C1C/C(=C/N(C)C)C(=S)N1 (centres undefined)
output: > 100 µM (inactive)

input: Let us now turn to CCOC(=O)C1CCCCN1C(=O)OCc1ccccc1 (centres undefined)
output: > 100 µM (inactive)

input: Let us now turn to COc1ccc(C(c2cc3c(cc2O)OCO3)N2CCOCC2)cc1OC (centres undefined)
output: 15.6 µM (inactive)

----------
test system: SF-295; assay: NCI tumour cell line growth inhibition, 48 h
The source made the active and inactive calls. Rule as the data show it: active = GI50 up to about 1.1 µM and inactive = higher.
Below: a set of entries, each annotated with reported GI50.

Answered examples (4):
Molecule: CN(C)CCCNc1cnc2cc3ccccc3cc2n1
GI50: 20.7 µM (inactive)

Molecule: CCOC(=O)c1ccc(C(=O)/C(C#N)=C2\CCCN2C)[nH]1
GI50: > 100 µM (inactive)

Molecule: CCCCCCNC(=O)CCC(NC(=O)c1ccc(N(C)Cc2cnc3nc(N)nc(N)c3n2)cc1)C(=O)NCCCCCC (configuration not stated)
GI50: 16.7 µM (inactive)

Molecule: Cc1cc2nc3c(C)c4ccccc4c(C)n3c2cc1C
GI50: 2.59 µM (inactive)

input: Data request, read-out GI50, for `COc1cc(/C=C2\C(=O)N(C(=O)Cc3ccccc3)N=C2C)cc(OC)c1OC`
output: > 100 µM (inactive)

input: Let us now turn to `COc1c(Br)cc(/C=C(\C#N)c2ccccn2)cc1Br`
output: 19.2 µM (inactive)

input: Let us now turn to `c1ccc(CNCCN2CCNCC2)nc1`
output: > 100 µM (inactive)

input: Let us now turn to NC(=O)c1ncn(C2OC(CO)C(O)C2O)c1NC=O (configuration not stated)
output: > 100 µM (inactive)

input: Let us now turn to `COC(=O)[C@@H]1CCCN1CCN1CCC[C@H]1C(=O)OC`
output: > 100 µM (inactive)

input: Let us now turn to O=C(/C(=N\Nc1ccc([N+](=O)[O-])cc1[N+](=O)[O-])NC12CC3CC(CC(C3)C1)C2)C(Br)C(=O)c1ccccc1 (configuration not stated)
output: 3.99 µM (inactive)

input: Let us now turn to `OCCCc1cnco1`
output: > 100 µM (inactive)

input: Let us now turn to COC1(OC)CC2C(=O)N(Cc3ccccc3)C1C=C2S(=O)(=O)c1ccccc1 (configuration not stated)
output: 28.5 µM (inactive)

----------
test system: PC-3; experiment: NCI tumour cell line growth inhibition, 48 h
Calls of active or inactive are those of the source. Rule as the data show it: active = GI50 up to about 1.1 µM and inactive = higher.
Choose one outcome from this list and give only that: yes (1) (active), no (0) (inactive)

The examples below pair each entry with its known result.
Compound: C/C=C1/CN2CCC34C(=C(C(=O)OC)C1CC23)Nc1ccc(O)cc14 (centres undefined)
Label: no (0)
--
Compound: Cn1c(=O)ccc2c(=O)c3ccccc3oc21
Label: no (0)
--
Compound: Nc1nnnn1CCO
Label: no (0)
--
Compound: NC(=O)c1ncn(C2OC(CO)C(O)C2O)c1NC=O (centres undefined)
Label: no (0)
--
Compound: O=C1C=CC2(O[C@@H](Cc3ccccc3)[C@H](Cc3ccccc3)O2)C(SC(=O)c2ccccc2)C1 (some centres undefined)
Label: no (0)

input: Tell me the recorded outcome of this test for CCCCCCCCCCCCOP(=O)(O)OP(=O)(O)OCC1OC(n2ccc(N)nc2=O)CC1O (centres undefined) .
output: no (0)

input: Let us now turn to `O=C1Nc2ccccc2/C1=N/NC(=S)NCc1ccccn1`
output: yes (1)

input: Let us now turn to `COc1ccc(Oc2nc3c(N)cc(C(F)(F)F)cc3nc2-c2ccccc2)cc1`
output: no (0)

input: Let us now turn to NC1=NCC(CN2CCCC2)O1 (centres undefined)
output: no (0)

input: Let us now turn to COc1ccc(OC)c(C2CCc3cnc4nc(N)nc(N)c4c3C2)c1 (centres undefined)
output: no (0)

input: Let us now turn to CC1(C)C(=O)/C=C\C(=O)C(C)(C)C2=CC=C(O2)C(C)(C)C(=O)C(Br)C(Br)C(=O)C(C)(C)C2=CC=C1O2 (centres undefined)
output: no (0)

input: Let us now turn to `COc1ccc(/C=C/c2ccnc3ccccc23)cc1OC`
output: no (0)

input: Let us now turn to `Cc1nc(C)c(N2CCN(S(N)(=O)=O)CC2)c(O)n1`
output: no (0)

input: Let us now turn to `COC(=O)c1ccc(NCc2c(O)ccc(O)c2Br)cc1Cl`
output: no (0)

input: Let us now turn to `Oc1ncc(N(CCCl)CCCl)c(O)n1`
output: no (0)

input: Let us now turn to `NS(=O)(=O)c1ccc(NC(=S)NC(=O)Nc2ccc(Cl)c(Cl)c2)cc1`
output: no (0)

input: Let us now turn to `O=C1C(=CNC(=S)c2ccccc2)C(=O)c2ccccc21`
output: no (0)

input: Let us now turn to O=C(c1ccc(Cl)cc1)N1N=C(c2ccc(Cl)cc2)CC1(O)c1cc(F)c(Cl)cc1Cl (centres undefined)
output: no (0)

input: Let us now turn to `CCOC(=O)C(CCc1ncnc2c1ncn2Cc1ccccc1)(CCc1ncnc2c1ncn2Cc1ccccc1)C(=O)OCC`
output: no (0)

input: Let us now turn to `COc1ccc(/C=C2\NC(=S)N(CN3CCOCC3)C2=O)cc1`
output: no (0)

input: Let us now turn to `O=C(Nc1ccc(F)cc1)c1cc2ccc(O)cc2o/c1=N\c1ccccc1F`
output: no (0)

input: Let us now turn to `O=C1c2ccccc2-c2c1c(-c1ccc([N+](=O)[O-])cc1)nc1ccc3ccccc3c21`
output: no (0)

input: Let us now turn to `O=Cc1cc2c(s1)C(=O)c1sccc1C2=O`
output: no (0)

input: Let us now turn to NC1C2C=CC(C2)C1C(=O)O (centres undefined)
output: no (0)
